Target: UniProt:Q9QZN9
Sequence (Q9QZN9 whole entry): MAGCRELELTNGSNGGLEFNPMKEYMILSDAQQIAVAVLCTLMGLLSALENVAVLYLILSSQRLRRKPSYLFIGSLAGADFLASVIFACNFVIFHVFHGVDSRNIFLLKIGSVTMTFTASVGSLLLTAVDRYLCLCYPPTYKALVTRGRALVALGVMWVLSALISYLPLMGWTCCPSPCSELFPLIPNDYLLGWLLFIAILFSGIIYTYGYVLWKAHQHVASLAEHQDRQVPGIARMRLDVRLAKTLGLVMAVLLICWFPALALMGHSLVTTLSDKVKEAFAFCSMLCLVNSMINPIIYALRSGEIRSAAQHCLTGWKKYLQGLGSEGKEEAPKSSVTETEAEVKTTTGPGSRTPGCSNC
Test: Agonist activity at rat recombinant CB2 receptor expressed in CHO-K1 cells assessed as inhibition of forskolin-stimulated intracellular cAMP level relative to CP-55940
Type: functional, cell-based
Quick list: Emax per entry.

mol_smiles | value_units | Emax
Fc1ccc(-c2noc(CCCNc3cnc4ccc(OC(F)(F)F)cc4c3)n2)c(Cl)c1 | % | 130
CCn1c2ccccc2c2cc(NC(=O)CCc3nc(-c4ccc(F)cc4Cl)no3)ccc21 | % | 98
O=C(CCc1nc(-c2ccc(F)cc2Cl)no1)Nc1ccc(C(F)(F)F)c(Cl)c1 | % | 100
CCn1c2ccccc2c2cc(NC(=O)CCc3nc(-c4ccccc4F)no3)ccc21 | % | 91
